# procedureText: Dissociation constant was measured
# Assay type: physicochemical
measuredQuantity: pKa

Check out these entries, answers already filled in.
What value of pKa has been recorded for this entry: "CNC(=O)[C@@H](NC(=O)[C@H](Sc1cccs1)[C@H](O)[C@@H](O)[C@@H](Sc1cccs1)C(=O)N[C@H](C(=O)NC)C(C)C)C(C)C" 6.4

# pKa lookup, item O=C(NC1c2ccccc2C[C@H]1O)[C@H](Sc1cccs1)[C@H](O)[C@@H](O)[C@@H](Sc1cccs1)C(=O)N[C@H]1c2ccccc2C[C@H]1O (some centres not stated) 6.4

Any idea what its pKa is? The compound is O=C(NC1c2ccccc2C[C@H]1O)[C@H](SCc1ccccc1)[C@H](O)[C@@H](O)[C@@H](SCc1ccccc1)C(=O)N[C@H]1c2ccccc2C[C@H]1O (some centres not stated) 9.7

(1) O=C(NC1c2ccccc2C[C@H]1O)[C@H](Sc1ccccc1)[C@H](O)[C@@H](O)[C@@H](Sc1ccccc1)C(=O)N[C@H]1c2ccccc2C[C@H]1O (some centres not stated)
(2) C=CCS[C@@H](C(=O)NC1c2ccccc2C[C@H]1O)[C@H](O)[C@@H](O)[C@@H](SCC=C)C(=O)N[C@H]1c2ccccc2C[C@H]1O (some centres not stated)
Lab notebook, comparison: 1 versus 2 , higher pKa goes to which? To answer, give the label that identifies your chosen option. 2
(2: 9.8, 1: 6.6)

----------
# procedureText: Dissociation constant was measured
# Assay type: physicochemical
measuredQuantity: pKa

# input compound: O=C(NC1c2ccccc2C[C@H]1O)[C@H](SCc1ccccc1F)[C@H](O)[C@@H](O)[C@@H](SCc1ccccc1F)C(=O)N[C@H]1c2ccccc2C[C@H]1O (stereo partly drawn) ; wanted: its pKa 9.2

Returns the measured pKa for the input compound. Input: "CNC(=O)[C@@H](NC(=O)[C@H](Sc1ccccc1F)[C@H](O)[C@@H](O)[C@@H](Sc1ccccc1F)C(=O)N[C@H](C(=O)NC)C(C)C)C(C)C" 6

Please look up its pKa: O=C(NC1c2ccccc2C[C@H]1O)[C@H](Sc1ccccn1)[C@H](O)[C@@H](O)[C@@H](Sc1ccccn1)C(=O)N[C@H]1c2ccccc2C[C@H]1O (stereo partly drawn) 9.6

----------
# measuredTarget: Human immunodeficiency virus type 1 protease (Human immunodeficiency virus 1, UniProt Q72874)
measuredQuantity: Ki (nM)

(P) O=C(NC1c2ccccc2C[C@H]1O)[C@H](Sc1cccs1)[C@H](O)[C@@H](O)[C@@H](Sc1cccs1)C(=O)N[C@H]1c2ccccc2C[C@H]1O (stereo partly drawn)
(Q) O=C(NC1c2ccccc2C[C@H]1O)[C@H](SCc1ccccc1)[C@H](O)[C@@H](O)[C@@H](SCc1ccccc1)C(=O)N[C@H]1c2ccccc2C[C@H]1O (stereo partly drawn)
Which entry has a larger number for Ki, P or Q ? Label of pick, please. Q
(Q: 2.8 nM, P: 0.5 nM)

----------
# measuredTarget: Human immunodeficiency virus type 1 protease (Human immunodeficiency virus 1, UniProt Q72874)
measuredQuantity: Ki (nM)

Answered examples (3):
May I ask what Ki has been recorded for O=C(NC1c2ccccc2C[C@H]1O)[C@H](Sc1ccccc1F)[C@H](O)[C@@H](O)[C@@H](Sc1ccccc1F)C(=O)N[C@H]1c2ccccc2C[C@H]1O (some centres not stated) ? 2.3

Reported Ki for "CNC(=O)[C@@H](NC(=O)[C@H](Sc1cccs1)[C@H](O)[C@@H](O)[C@@H](Sc1cccs1)C(=O)N[C@H](C(=O)NC)C(C)C)C(C)C" : what is it? 1

# Ki lookup, item O=C(NC1c2ccccc2C[C@H]1O)[C@H](SCc1ccccc1F)[C@H](O)[C@@H](O)[C@@H](SCc1ccccc1F)C(=O)N[C@H]1c2ccccc2C[C@H]1O (some centres not stated) 4.3

(1) O=C(NC1c2ccccc2C[C@H]1O)[C@H](Sc1ccccn1)[C@H](O)[C@@H](O)[C@@H](Sc1ccccn1)C(=O)N[C@H]1c2ccccc2C[C@H]1O (some centres not stated)
(2) O=C(NC1c2ccccc2C[C@H]1O)[C@H](Sc1ccccc1)[C@H](O)[C@@H](O)[C@@H](Sc1ccccc1)C(=O)N[C@H]1c2ccccc2C[C@H]1O (some centres not stated)
Of the two listed items, which has the higher Ki? First: 1 Second: 2 // return label of chosen record 1
